Experiment: inhibitors of TNFa-induced NFkB p65 translocation, primary screen, imaging, HUVEC, MLSMR starter and 10KST1 sets (AID 438);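 note: compound added about 3h40 before a 20 min TNFalpha stimulation; signal is the nuclear over cytoplasmic p65 intensity ratio per well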
Settings: HUVEC TNFa-induced p65 nuclear translocation; at 2 µM, stronger effect = higher value unless noted
Active and inactive are the calls of the source.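 Rule for the calls: active = inhibition above 20% together with a positive visual image hit; inconclusive = visual image hit but inhibition not above 20%; inactive = no visual image hit.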
Exercise: for every item that follows, state its recorded inhibition.

[[record]]
molecule = "O=C(CCCOc1ccc(Cl)cc1Cl)N1CCC2(CC1)OCCO2"
reported = "-20.4% (inactive)"

[[record]]
molecule = "CCCc1nc2ccccc2c(=O)n1-c1ccccc1OC"
reported = "-5.2% (inactive)"

[[record]]
molecule = "Cc1cccc(C2=NCC(=O)N(CC(=O)NCc3ccco3)c3sc4c(c32)CCCC4)c1"
reported = "14.7% (inactive)"

[[record]]
molecule = "CCN(CC)c1ccc(N=Cc2c(O)n(-c3ccccc3C)c(=O)[nH]c2=O)cc1"
reported = "3.8% (inactive)"

[[record]]
molecule = "Cc1ccc(C)c(NC(=O)CSc2nnc([C@@H](N)Cc3c[nH]c4ccccc34)o2)c1"
reported = "9.5% (inactive)"


Fill in inhibition for each of the 4 molecules listed.
1. O=c1c2ccccc2nc(CSc2ncnc3nc[nH]c23)n1-c1ccccc1
2. Cn1c(C(=O)N2CCC3(CC2)OCCO3)cc2c(=O)n(C)c3ccccc3c21
3. CCOc1cccc(N2C(=O)CC(=O)NC2=O)c1
4. COc1ccccc1N(CC(=O)NC1CCCCC1)C(=O)c1cnn(C(C)C)c1

Response:
["2.3% (inactive)", "-0.2% (inactive)", "-3.3% (inactive)", "2.5% (inactive)"]

Fill in inhibition for each of the 8 molecules listed.
1. CCN1CCN(Cc2cc(Br)cc(OC)c2O)CC1
2. O=C(CCCN1CCC2(CC1)C(=O)NCN2c1ccccc1)c1ccc(F)cc1
3. CCN1CCN(c2ncnc3ccc(Br)cc23)CC1
4. COC(=O)CC1(Cc2ccccc2)C(=O)NC(=O)NC1=O
5. COc1ccc(CCNC(=O)c2c(N)n(CCN3CCOCC3)c3nc4ccccc4nc23)cc1
6. COc1cc2[nH]c(=O)n(-c3cccc(Cl)c3)c(=O)c2cc1OC
7. Nc1ccnn1C1CCNCC1
8. O=C(c1ccc2nc3ccc(Cl)cc3c(=O)n2c1)N1CCC2(CC1)OCCO2

Response:
["3.6% (inactive)", "2.1% (inactive)", "2.1% (inactive)", "-6.3% (inactive)", "9.5% (inactive)", "-0.6% (inactive)", "2.4% (inactive)", "-20.4% (inactive)"]

Fill in inhibition for each of the 3 molecules listed.
1. CC(=O)N1CC(=O)Nc2ccc(Cl)cc2C1c1ccc(F)cc1 (stereo unspecified)
2. CCN(CC)CCCC(C)N=C(c1ccccc1)c1c(O)n(C)c(=O)n(C)c1=O (stereo unspecified)
3. Cn1c(=O)cc(SCC(=O)N2CCC3(CC2)OCCO3)c2ccc(Cl)cc21

Response:
1: 20.8% (inactive); 2: -1.4% (inactive); 3: 0.9% (inactive)
